Biological target: PPARG (peroxisome proliferator activated receptor-gamma), GST-PPARG-LBD (Homo sapiens)
Construct: 15 μL of 5 nM GST-PPARG-LBD and 5 nM Tb-GST-antibody were added; purchased Invitrogen PV4894
Sequence (P37231 238-503 limits assumed): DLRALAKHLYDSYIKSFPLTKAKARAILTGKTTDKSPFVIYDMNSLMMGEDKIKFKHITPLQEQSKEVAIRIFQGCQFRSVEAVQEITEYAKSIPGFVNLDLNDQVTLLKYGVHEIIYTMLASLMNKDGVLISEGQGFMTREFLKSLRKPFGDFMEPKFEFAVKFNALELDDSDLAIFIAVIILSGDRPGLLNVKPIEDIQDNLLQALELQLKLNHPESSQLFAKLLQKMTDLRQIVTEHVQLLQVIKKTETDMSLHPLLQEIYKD
Assay: LanthaScreen TR-FRET PPARG Competitive Binding Assay
Design: key: “+” indicates the degree of the binding activity, and as the number of “+” increases, the binding activity is stronger; ++: “+” indicates the degree of the binding activity, and as the number of “+” increases, the binding activity is stronger; +++: “+” indicates the degree of the binding activity, and as the number of “+” increases, the binding activity is stronger; ++++: “+” indicates the degree of the binding activity, and as the number of “+” increases, the binding activity is stronger
Conditions: degree of binding activity
Method: The following experiment was performed to evaluate the PPARG (peroxisome proliferator activated receptor-gamma) binding capacity and transcriptional activity of the compounds prepared in the examples of the invention. […] Upon completion of the reaction, fluorescence value was measured by using Flexstation 3 (Molecular Devices) with time-resolved fluorescence (RFU) mode (excitation 1: 340 nm, emission 1: 518 nm, excitation 2: 340 nm, emission 2: 488 nm, integration delay 50 μs, integration 400 μs). […]
parameter: Binding assay (1 μLM)

// worked examples, Binding assay (1 μLM) included
COc1ccccc1[C@H](C)NC(=O)c1ccc2c(c1)CCCN2Cc1ccc(-c2ccccc2C(N)=O)cc1 :: +++
C[C@H](NC(=O)c1ccc2c(c1)CCCN2Cc1cccc(-c2ccccc2C(N)=O)c1F)c1ccc([N+](=O)[O-])cc1 :: +++
C[C@H](NC(=O)c1ccc2c(c1)OCCN2Cc1ccc(-c2ccccc2C(=O)O)cc1)c1cccc(OC(F)(F)F)c1 :: +++
C[C@H](NC(=O)c1ccc2c(c1)CCCN2Cc1ccc(-c2ccccc2C(=O)O)cc1)c1cccc2ccccc12 :: +++
O=C(NCc1ccncc1)c1ccc2c(c1)OCCN2Cc1ccc(-c2ccccc2C(=O)O)cc1 :: +
C[C@H](NC(=O)c1ccc2c(c1)CCCN2Cc1cc(-c2ccccc2C(N)=O)ccc1F)c1ccccc1 :: +++

With those in mind, consider the next molecule.
// query Consider the molecule C[C@H](NC(=O)c1ccc2c(c1)CCCN2Cc1ccc(-c2ccccc2C(=O)O)cc1)c1cccc(C(F)(F)F)c1 and give its recorded Binding assay (1 μLM).
// result +++
